system: IGROV-1; test: NCI tumour cell line growth inhibition, 48 h
The source made the active and inactive calls. Rule as the data show it: active = GI50 up to about 1.1 µM and inactive = higher. Where a SMILES comes first, the peptide text is derived from it.
Use one of these outcomes when replying: active, inactive

Use these answered entries as a reference point.
compound	class
CS(=O)(=O)OCCn1cnc2nc(NC(=O)c3ccccc3)[nH]c(=O)c21	inactive
NCC(=O)OCN1C(=O)C2C3C=CC(C2C1=O)C1C2C(=O)N(COC(=O)CN)C(=O)C2C31 (stereo unspecified)	inactive
Nc1ccc(C(=O)O)cc1	inactive
COc1ccc(OC)c(-c2cc(=O)c3c(OC)c(OC)c(OC)c(OC)c3o2)c1	inactive

INPUT: Dear all, I need the recorded test outcome for CC(=O)NC(CS)C(=O)NC(CO)C(=O)NC(CO)C(=O)NC(Cc1c[nH]c2ccccc12)C(=O)N1CCCC1C(=O)NC(CO)C(=O)NC(Cc1c[nH]c2ccccc12)C(=O)NC(Cc1c[nH]cn1)C(=O)NC(CO)C(=O)NC(Cc1c[nH]c2ccccc12)C(=O)NCC(=O)NCC(=O)NC(CC(=O)O)C(=O)NC(CCC(N)=O)C(=O)NC(CCCCN)C(=O)NC(Cc1ccccc1)C(=O)NC(CCCNC(=N)N)C(=O)NC(CCCCN)C(N)=O (stereo unspecified) (Ac-CSSWPSWHSWGGDQKFRK-NH2; configuration not given here) , thank you.
OUTPUT: inactive

INPUT: Field entry: `S=C(N/N=C(/c1ccccc1)c1ccccn1)Nc1ccc(Cl)cc1`
OUTPUT: active

----------
test system: HCT-15
quantityKind: GI50

compound	reportedResult
O=C(O)C1C2CC3C(OC(=O)C31)C2Br (stereo not given)	> 100 µM
O=S(=O)(C1=CC(S(=O)(=O)c2ccccc2)COC1)c1ccccc1 (stereo not given)	> 100 µM
C=CCC12CC(=O)CCC1c1ccc(OC)cc1C2=O (stereo not given)	> 100 µM

Hi! Can you tell me GI50 for each of these compounds?
1. COc1cc(COC(=O)N2CCC2C(=O)O)c([N+](=O)[O-])cc1OC (stereo not given)
2. Nc1ccc(N)c2c1C(=O)c1c(N)ccc(N)c1C2=O

OUTPUT:
> 100 µM
> 66.5 µM

----------
system: A498; experiment: NCI tumour cell line growth inhibition, 48 h
Active and inactive are the calls of the source. No stated cut-off is given here; in the data, active = GI50 up to about 1.1 µM and inactive = higher.
Pick from true (1) = active, false (0) = inactive when you respond.

molecule	class
O=c1c(Cl)cc2nc3ccccc3sc-2c1Cl	false (0)

INPUT: Field: outcome | Entry: `CCCCc1c2c(nc3c1CCc1cc4c(nc1-3)-c1nc3c(c(CCCC)c1CC4)CCC/C3=C\c1ccccc1)/C(=C/c1ccccc1)CCC2`
OUTPUT: false (0)

INPUT: How about `O=c1[nH]nc(Cc2ccccc2)n1/N=C/c1c[nH]c2ccccc12` ?
OUTPUT: false (0)

INPUT: Lookup CN(Cc1ccccc1)C(=S)S [SODIUM BENZYL(METHYL)CARBAMODITHIOATE]
OUTPUT: false (0)

INPUT: Input `Cn1nc(-c2ccccc2)c2c(/C=C/c3ccccc3)onc2c1=O`
OUTPUT: false (0)

INPUT: And `Brc1cccc(/C=C/CN2CCN(CCOC(c3ccccc3)c3ccccc3)CC2)c1` ?
OUTPUT: false (0)

INPUT: And `CC(C)C1=Cc2ccc3c(c2C(=O)C1=O)CCCC3` ?
OUTPUT: false (0)

INPUT: What do you have for `O=C1C(O)=C(Cl)C(=O)c2c(O)ccc(O)c21` ?
OUTPUT: false (0)

INPUT: Then this molecule: `COc1ccc(OC)c(NC(=O)CCC/C(CC(=O)c2ccc(O)c(OC)c2)=N\Nc2nnc(C)n2N)c1`
OUTPUT: false (0)

INPUT: Can you check CCC[C@H](C)[C@H]1NC(=O)[C@@H](NC(=O)[C@@H](CC(C)C)N(C)C(=O)C2CCCN2C(=O)[C@H](C)O)[C@@H](C)OC(=O)[C@H](CC(C)C)N(C)C(=O)[C@@H]2CCCN2C(=O)[C@H](CC(C)C)NC(=O)[C@@H](C)C(=O)[C@H](C(C)C)OC(=O)C[C@@H]1O (stereo not given in full) next?
OUTPUT: true (1)

INPUT: Record: `COc1cc(/C=C\c2ccc(SC)cc2)cc(OC)c1OC`
OUTPUT: true (1)

INPUT: Try this molecule too: O=C1c2ccccc2NC1(c1ccccc1)c1c(-c2ccccc2)[nH]c2ccccc12 (stereo not given)
OUTPUT: false (0)

INPUT: Also need `COc1cc(/C=C2\CCc3cc(OC)c(OC)cc3C2=O)cc(OC)c1` , thanks.
OUTPUT: false (0)

INPUT: Next record, please: CC(C)=CC1C(COC(=O)c2ccccc2Cl)C1(C)C (stereo not given)
OUTPUT: false (0)

INPUT: Now try NCC(=O)OCN1C(=O)C2C3C=CC(C2C1=O)C1C2C(=O)N(COC(=O)CN)C(=O)C2C31 (stereo not given) .
OUTPUT: false (0)

INPUT: One more molecule: C=C1CC(OC(C)=O)/C=C(/C)CCC(C(C)(C)O)CC1O (stereo not given)
OUTPUT: false (0)

INPUT: For Cc1nnc(N)nc1C/C=C/C(C)Sc1ccc(Cl)cc1 (stereo not given) then?
OUTPUT: false (0)

INPUT: Then what about the molecule `Cc1nn(C)cc1P(=S)(c1ccccc1)c1ccccc1` ?
OUTPUT: false (0)

INPUT: Same thing, different molecule: `CCOC(=O)c1sc2nc(SC)nc3c2c1N=CN3c1ccccc1Cl`
OUTPUT: false (0)

INPUT: Now give it for c1ccc2c(c1)C1CCCCCC21N1CCOCC1 (stereo not given) too.
OUTPUT: false (0)

----------
system: U-251; test: NCI tumour cell line growth inhibition, 48 h
Activity calls are given as the source filed them. Cut-off read from the data, not from the text of the source: active = GI50 up to about 1.1 µM and inactive = higher.
Assignment: determine reported GI50 for the given molecules.

Some solved entries appear below for comparison.
molecule	systemName	reportedResult
O=C1c2ccccc2-c2c1c1ccccc1c(=O)n2Cc1ccccc1	U-251	93.8 µM (inactive)
CCC(=O)NCC1CCCN2CCCCC12 (stereo unspecified)	U-251	> 100 µM (inactive)
N/N=C(\N)Nc1cccc2ccccc12	U-251	> 100 µM (inactive)

Provide reported GI50 for each item, in the same order as listed.
1. CC#CC#C/C=C1/C=CC2(CCCCO2)O1 (stereo unspecified)
2. Cn1c(=O)c2nc(CSCc3ccccc3)[nH]c2n(C)c1=O
3. CN(C)CN(C)c1nc(N(C)C)nc(N(C)CN(C)C)n1
4. C=C1CC(OC(C)=O)/C=C(/C)CCC(C(C)(C)O)CC1O (stereo unspecified)
5. CCOC(=O)/C=C1\Nc2ccccc2C12CCc1c([nH]c3ccccc13)C2C(=O)OCC (stereo unspecified)

OUTPUT:
> 100 µM (inactive)
> 100 µM (inactive)
> 100 µM (inactive)
> 100 µM (inactive)
> 100 µM (inactive)

Kindly give each listed record's GI50.
1. COc1ccc2c3c(c(C(=O)O)oc13)C(CCC(=O)O)CC2 (stereo unspecified)
2. C=CC[C@H](C)CCC(=O)N1[C@H]2CC3CC[C@@]2(CS1(=O)=O)C3(C)C
3. Cc1nnc(N)nc1C/C=C/C(C)Sc1ccc(Cl)cc1 (stereo unspecified)
4. Cc1c(Br)c(Br)c(C)[s+]1[O-]

OUTPUT:
1: > 100 µM (inactive); 2: 56.1 µM (inactive); 3: 8.93 µM (inactive); 4: 11.6 µM (inactive)

----------
tested on: T47D; test: NCI tumour cell line growth inhibition, 48 h
The source made the active and inactive calls. Cut-off read from the data, not from the text of the source: active = GI50 up to about 1.1 µM and inactive = higher.
Outcomes you can answer with include only these: Yes for active, No for inactive

Please review the entries below; each comes with its answer.
molecule	class
O=c1[nH]nc(Cc2ccccc2)n1/N=C/c1c[nH]c2ccccc12	No
COc1ccc(NC(=S)N/N=C(\c2ccccc2)c2ccccn2)cc1	Yes
O=C(O)/C(Cc1ccc([N+](=O)[O-])cc1)=N\O	No

INPUT: Please state the recorded outcome for this molecule: COc1ccc2c(c1)CC[C@@H]1C2CC[C@]2(C)C(=O)N(C)C(=O)CC12 (stereo partly drawn)
OUTPUT: No

INPUT: Another molecule: `Cc1cc2nc3[nH]c4c(Cl)cc(Cl)cc4c3nc2cc1C`
OUTPUT: No

----------
test system: UACC-62; assay: NCI tumour cell line growth inhibition, 48 h
Active and inactive are the calls of the source. Rule as the data show it: active = GI50 up to about 1.1 µM and inactive = higher.
Answer each item with its documented GI50.

# example entries with known answers
compound	reportedResult
COc1ccc2nc(NC(=O)C(=O)NNC(=O)c3ccncc3)sc2c1	> 100 µM (inactive)
O=S(=O)(O)c1cc(/N=N/c2cc(S(=O)(=O)O)c3cccnc3c2O)ccc1/C=C/c1ccc(/N=N/c2cc(S(=O)(=O)O)c3cccnc3c2O)cc1S(=O)(=O)O	> 100 µM (inactive)
CC(C)(CCc1nc2ccccc2[nH]1)C(=O)O	> 100 µM (inactive)
N#CC1=C(c2ccccc2)C(O)(c2ccccc2)NC1=O (configuration not stated)	> 100 µM (inactive)
O=P(O)(O)OC1O[C@H](CO)[C@H](O)[C@H](O)[C@H]1O (some centres not stated)	> 100 µM (inactive)

Respectfully, I request GI50 for each entry included below.
1. CC(=O)Oc1ccc2c3c1O[C@H]1[C@H](O)CC[C@@]4(O)[C@@H](C2)N(C)CC[C@]314
2. c1ccc2c(c1)C1CCCCCC21N1CCOCC1 (configuration not stated)
3. Cc1cc([N+](=O)[O-])ccc1/N=N/C(=O)NNc1ccc([N+](=O)[O-])cc1C
4. CCCCCCCCCc1cc(=O)c2ccc(O)cc2o1
5. C[C@H]1[C@H](C)CC[C@]2(C)CC[C@]3(C)C(=C[C@@H](O)[C@@H]4[C@@]5(C)[C@H](O)[C@@H](O)[C@H](O)C(C)(C)[C@@H]5CC[C@]43C)[C@H]12
6. N#CC12CCC(O)C(CC1)C2=O (configuration not stated)
7. O=C1c2ccccc2NC1(c1ccccc1)c1c(-c2ccccc2)[nH]c2ccccc12 (configuration not stated)
8. O=c1[nH]nc(Cc2ccccc2)n1/N=C/c1c[nH]c2ccccc12

OUTPUT:
1. > 100 µM (inactive)
2. > 100 µM (inactive)
3. 13.5 µM (inactive)
4. > 100 µM (inactive)
5. > 100 µM (inactive)
6. > 100 µM (inactive)
7. 45.3 µM (inactive)
8. 41.6 µM (inactive)

I need GI50 for every entry listed below, if you could help.
1. Oc1cc(-c2cccs2)nc2cc3c(cc12)OCO3
2. CC12CCC(=O)C=C1CCC1C2CCC2(C)C(C(=O)Cn3cnc4c(=S)nc[nH]c43)CCC12 (configuration not stated)
3. O=P(Nc1ccc(Cl)cc1)(Oc1ccccc1)N(CCCl)CCCl (configuration not stated)

OUTPUT:
["2.92 µM (inactive)", "23.8 µM (inactive)", "> 100 µM (inactive)"]

Provide reported GI50 for each item, in the same order as listed.
1. CC(=O)O[C@H]1CC(C)(C)C(=C=C/C(C)=C/C=C/C=C/C=C(C)/C=C2C=C(/C=C/[C@@]34O[C@]3(C)C[C@@H](O)CC4(C)C)C(=O)O/2)[C@](C)(O)C1
2. Cc1ccc(NC(=O)C(=O)C(C#N)c2nc(-c3ccc(-c4ccccc4)cc3)cs2)c(C)c1 (configuration not stated)
3. N#CC(C#N)=CNCCN1CCN(C=C(C#N)C#N)CC1
4. O=C([C@H](O)[C@@H](O)c1cccc(Cl)c1)C12CC3CC(CC(C3)C1)C2

OUTPUT:
1: 7.93 µM (inactive); 2: > 100 µM (inactive); 3: > 100 µM (inactive); 4: 1.73 µM (inactive)

Could you tell me GI50 for each of these compounds? They are listed below.
1. CN(Cc1cnc2nc(N)nc(N)c2n1)c1ccc(C(=O)NC(CO)CCCO)cc1 (configuration not stated)
2. O=C1c2c(nc3ccccc3c2-c2ccccc2)CN1Nc1ccccc1
3. C=CC1=C(C)c2cc3[nH]c(c4c5nc(cc6[nH]c(cc1n2)c(C)c6CC)C(C)=C5C(=O)[C@@H]4C(=O)OC)[C@@H](CCC(=O)O)[C@@H]3C
4. COn1cc(C=O)c2ccccc21
5. C[C@]12CCC(=O)C=C1CC[C@@H]1[C@@H]2CC[C@]2(C)C(=O)[C@H](n3ccnc3)C[C@@H]12

OUTPUT:
1. > 100 µM (inactive)
2. > 100 µM (inactive)
3. 2.16 µM (inactive)
4. 41 µM (inactive)
5. > 100 µM (inactive)

Hi! Can you tell me GI50 for each of these compounds?
1. Cn1c(=O)c2c(nc3n(CC(O)CCl)c(=O)ccn23)n(C)c1=O (configuration not stated)
2. COC(=O)C1=C(c2ccc3c(c2)OCO3)OC(c2ccc3c(c2)OCO3)C1 (configuration not stated)
3. CSc1nc(NC2OCC(O)C(O)C2O)c(N)c(=O)n1C (configuration not stated)

OUTPUT:
36.5 µM (inactive)
> 100 µM (inactive)
> 100 µM (inactive)

Record GI50 for all entries; do not skip any.
1. COc1cc(COC(=O)N2CCC2C(=O)O)c([N+](=O)[O-])cc1OC (configuration not stated)
2. COn1oc(=O)c2ccccc21
3. CC(C)(C)c1nc2c(o1)/C(=N\c1ccccc1)c1ccccc1C2=O
4. C[C@@H](NC(=O)[C@@H]1C[C@]1(C)COC(=O)c1cc([N+](=O)[O-])cc([N+](=O)[O-])c1)c1cccc2ccccc12

OUTPUT:
> 100 µM (inactive)
> 100 µM (inactive)
2.17 µM (inactive)
50 µM (inactive)
